B1: CFHR2 (parent)
chain: FVENGHSESSGQTHLEGDTVQIIC

- Variants of: B1
- test_description: protein stability index of a GFP-peptide fusion (GPS, HEK-293T) (PSI 1-6); higher = more stable;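 also: lentivirally expressed fusions sorted by FACS into six bins by GFP to DsRed ratio, PSI derived from sequencing read proportions per bin multiplied by bin number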
- test_context: c terminus: a fixed tail appended

- mutation_code: "G5T"
  protein stability index: 2.97
- mutation_code: "Q12L"
  protein stability index: 1.69
- mutation_code: "V2Y"
  protein stability index: 3.44
- mutation_code: "E16C"
  protein stability index: 1.82
- mutation_code: "T13C"
  protein stability index: 2.55
- mutation_code: "E8H"
  protein stability index: 2.08
- mutation_code: "S10G"
  protein stability index: 2.87
- mutation_code: "S7G"
  protein stability index: 2.63
- mutation_code: "Q21K"
  protein stability index: 2.83
- mutation_code: "T13P"
  protein stability index: 2.87
- mutation_code: "E8A"
  protein stability index: 2.15
- mutation_code: "Q21M"
  protein stability index: 1.92
- mutation_code: "T13G"
  protein stability index: 3.03
- mutation_code: "E16P"
  protein stability index: 2.42
- mutation_code: "I22L"
  protein stability index: 2.34
- mutation_code: "S9I"
  protein stability index: 2.2
- mutation_code: "V20D"
  protein stability index: 3.81
- mutation_code: "F1W"
  protein stability index: 3.86
- mutation_code: "G17E"
  protein stability index: 4.47
- mutation_code: "T13W"
  protein stability index: 1.85
- mutation_code: "G5S"
  protein stability index: 3.01
- mutation_code: "Q21C"
  protein stability index: 2.18
